- METHOD: physchem
- TEST_CONDITIONS: dry state, % Loss
PROPERTY_MEASURED: degraded at 1008 h (%)
API: value field is a number in %; no unit string.

Query :: For CCN1CCN(C(=O)NC(C(=O)NC2(OC)C(=O)N3C(C(=O)O)=C(CSc4nnnn4C)CSC32)C(C)O)C(=O)C1=O (stereo not shown) [Cefbuperazone free acid dihydrate] , what is its reported degraded at 1008 h?
Result :: 1.8

###

- METHOD: Intravenous toxicity test (LD50)
- TEST_CONDITIONS: mouse, in vivo, mice, dosing solution 333 mg of cefbuperazone activity per ml, parentheses = 95% confidence limits
PROPERTY_MEASURED: LD50

Query :: For CCN1CCN(C(=O)NC(C(=O)NC2(OC)C(=O)N3C(C(=O)O)=C(CSc4nnnn4C)CSC32)C(C)O)C(=O)C1=O (stereo not shown) [sodium cefbuperazone] , what is its reported LD50?
Result :: > 5000 mg/kg

###

- METHOD: physchem
- TEST_CONDITIONS: dry state, % Loss
PROPERTY_MEASURED: degraded at 840 h (%)
API: value field is a number in %; no unit string.

Query :: For CCN1CCN(C(=O)NC(C(=O)NC2(OC)C(=O)N3C(C(=O)O)=C(CSc4nnnn4C)CSC32)C(C)O)C(=O)C1=O (stereo not shown) [Cefbuperazone free acid dihydrate] , what is its reported degraded at 840 h?
Result :: 0
